assay: NCI Yeast Anticancer Drug Screen. Data for the sgs1 mgt1 strain (AID 161);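 further: 0% = growth of cultures given vehicle only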; conditions: S. cerevisiae sgs1 mgt1 strain, at 50.0 µM, stronger effect = higher value
The panel holds about 79,000 compounds, 15% with a hit somewhere; the sample as a whole holds those more often. Activity calls are given as the source filed them. No stated cut-off is given here; in the data, active means growth inhibition above about 70%; inactive means the rest.
experimental readout: growth inhibition

INSERT INTO measurements (molecule, endpoint_result) VALUES
  ('O=c1[nH]c2cc(Cl)ccc2nc1/C=C(\O)c1cccc(O)c1', '-8.45% (inactive)'),
  ('Clc1nnc(-c2ccccc2)s1', '19.9% (inactive)'),
  ('CC(C)CCCC(C)C1CCC2C1CCC1C2CCC2(C)CCC(=O)CCC12C (stereo not given)', '-2.55% (inactive)'),
  ('CC(=O)Nc1cc(C)c(C)cc1NC(C)=O', '-8.35% (inactive)'),
  ('NCc1ccc(C(=O)O)cc1', '-28% (inactive)');

* * *

test: NCI Yeast Anticancer Drug Screen. Data for the cln2 rad14 strain (AID 165);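 further: 0% = growth equal to vehicle treated cultures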; details: S. cerevisiae cln2 rad14 strain, at 50.0 µM, stronger effect = higher value
About 79,000 compounds went through this panel and 15% of them were active in at least one assay; those are over-represented in the sample as a whole. The source made the active and inactive calls. Cut-off read from the data, not from the text of the source: active = growth inhibition above about 70%; inactive = the rest.
Consider the following compounds and their measured growth inhibition readings.
experimental readout: growth inhibition

INSERT INTO measurements (compound, experimental_readout, endpoint_result) VALUES
  ('CC(=O)/C(C)=C\C=C(\C)C(C)=O', 'growth inhibition', '-84.5% (inactive)'),
  ('O=c1cc(O)n2ncnc2[nH]1', 'growth inhibition', '3.05% (inactive)'),
  ('COc1ccc(C(O)C2c3c(cc4c(c3OC)OCO4)CCN2C)c(CO)c1OC (centres undefined)', 'growth inhibition', '37.5% (inactive)'),
  ('COc1ccc(C2OC3=C(Nc4ccc(Cl)cc4N3)C2=O)c(OC)c1 (centres undefined)', 'growth inhibition', '-29.9% (inactive)');

* * *

experiment: NCI Yeast Anticancer Drug Screen. Data for the rad50 strain (AID 155);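 further: 0% = growth of vehicle-only cultures of the same strain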; conditions: S. cerevisiae rad50 strain growth inhibition; at 50.0 µM; stronger effect = higher value
Compounds without any hit were thinned out: in the full panel of roughly 79,000, 15% have a hit.
Consider the following molecules and their measured growth inhibition readings.
experimental readout: growth inhibition (%)

INSERT INTO assay_data (molecule, endpoint_result) VALUES
  ('CC(CCC(=O)O)(CCC(=O)O)C(=O)O', 4.2),
  ('COc1ccc(N2C(=O)C3c4[nH]c5ccccc5c4C4CCCCCCC4C3C2=O)cc1 (centres undefined)', 50.1),
  ('CC(=O)c1c(-c2ccc(Cl)cc2)c(C#N)c(=S)n(C2OC(CO)C(O)C(O)C2O)c1C (centres undefined)', -2.85),
  ('O=C(O)c1ccc(F)c([N+](=O)[O-])c1', 7.15),
  ('O=[N+]([O-])c1ccc(-c2csc(Nc3ccccn3)n2)o1', 81.1),
  ('C1CCCN(NC2=NCCO2)CC1', 18.8),
  ('COC(=N)C(C)C', 26.4),
  ('Cc1ccc(-n2cc(-c3ccc(Cl)cc3)c3c2N=CN2NC(c4ccco4)=NC32)cc1 (centres undefined)', 5.1),
  ('C(=C1/NC(c2ccccc2)=Nc2ccccc21)/c1ccccc1', 24.3);

* * *

assay: NCI Yeast Anticancer Drug Screen. Data for the mlh1 rad18 strain (AID 175); conditions: S. cerevisiae mlh1 rad18 strain growth inhibition; at 50.0 µM; stronger effect = higher value
About 79,000 compounds went through this panel and 15% of them were active in at least one assay; those are over-represented in the sample as a whole.
Consider the following compounds and their measured growth inhibition readings.
experimental readout: growth inhibition (%)

INSERT INTO results (compound, experimental_readout, endpoint_result) VALUES
  ('COc1ccc(C(=O)Oc2ccccc2C)cc1', 'growth inhibition', -1.95),
  ('Cc1ccc(C2SCC(=O)N2c2ccc(-c3ccc(-n4c(-c5ccccc5)nc5ccccc5c4=O)cc3)cc2)cc1 (stereo unspecified)', 'growth inhibition', 55.8),
  ('O=C1NC(Cc2ccc(O)cc2)C(=O)N1c1ccccc1O (stereo unspecified)', 'growth inhibition', 3.5),
  ('CCOC(=O)CC1(O)Oc2cc3c(cc2C(c2cc(OC)c(OC)c(OC)c2)C1C(=O)OCC)OCO3 (stereo unspecified)', 'growth inhibition', 10.2),
  ('CC(NC(=O)OCc1ccccc1)NC(=O)OC(C)(C)C (stereo unspecified)', 'growth inhibition', -26.8),
  ('COc1ccc(NC(C)=O)c(C(=O)CCNC(C)=O)c1', 'growth inhibition', -23.4),
  ('COc1ccc(C23OCN(c4ccccc4)C2(c2ccc(OC)cc2)c2ccccc2N3C)cc1 (stereo unspecified)', 'growth inhibition', 11.3),
  ('COC(=O)c1ccccc1N=NNc1ccc(C)c(Cl)c1', 'growth inhibition', 5.15),
  ('c1ccc(-c2ccc(N=NN3CCCC3)cc2)cc1', 'growth inhibition', 8.1),
  ('NC(=O)c1ccccc1NC(=O)C(=O)C(c1cnc2ccc([N+](=O)[O-])cc2n1)[N+](=O)[O-] (stereo unspecified)', 'growth inhibition', 28.8),
  ('CC(=O)Nc1cc2cc(N)ccc2oc1=O', 'growth inhibition', 16.6);
